Tested on: mouse bone marrow derived osteoprogenitor cells
Assay: In vitro osteoblast differentiation assay (cellular alkaline phosphatase)
Format: cell-based
Settings: preliminary osteoblast differentiation assay; relative to mean of baseline group; 8 days; LA number = ng/ml lanthanum; Control = Baseline+10^−10 M 17-estradiol
Measurement kind: Relative specific activities of intracellular alkaline phosphatase, Mean ± SD
Answer as a number with no unit attached.

A selection of reference data follows.
O.O.O.O.O=C([O-])[O-].O=C([O-])[O-].O=C([O-])[O-].[La+3].[La+3] [LA 100, lanthanum carbonate tetrahydrate]; 1.15
O.O.O.O.O=C([O-])[O-].O=C([O-])[O-].O=C([O-])[O-].[La+3].[La+3] [LA 500, lanthanum carbonate tetrahydrate]; 1.01

For the next question, use this compound.
Input: What Relative specific activities of intracellular alkaline phosphatase, Mean ± SD value was documented for this compound, O.O.O.O.O=C([O-])[O-].O=C([O-])[O-].O=C([O-])[O-].[La+3].[La+3] [LA 1000, lanthanum carbonate tetrahydrate] ?
Output: 0.94
